Hi, quick share: literature IC50 data for UniProt Q04759, several sources combined.
Form entry: value (nM) — number only.

Previously resolved entries follow.
COMPOUND	TARGET SYSTEM	IC50 (nM)
Cc1ncc(C#N)c(Nc2ccc3[nH]ccc3c2C)c1-c1ccc(OCCN2CCC(c3ccccc3)CC2)cc1	UniProt Q04759	272
CN(C)Cc1cccc(-c2cc3c(Nc4cccnc4)c(C#N)cnc3s2)c1	UniProt Q04759	31000
COCCN1CCN(Cc2cccc(-c3cc4c(Nc5ccc6[nH]ccc6c5)c(C#N)cnc4s3)c2)CC1	UniProt Q04759	300
Cc1cc(N2CCN(C)CC2)ncc1Nc1ncc(F)c(NC2CC(C)(C)N(C)C(C)(C)C2)n1	UniProt Q04759	213
N#Cc1cnc2sc(-c3csc(CN4CCC[C@H]4CO)c3)cc2c1Nc1ccc2[nH]ccc2c1	UniProt Q04759	57

Looking for the measured IC50 of N#Cc1cnc2sc(C#Cc3ccncc3)cc2c1Nc1ccc2[nH]ccc2c1 , can you help?
76

Using the record for COc1cccc(/C=C/c2cc3c(Nc4ccc5[nH]ccc5c4)c(C#N)cnc3s2)c1 , report its IC50.
1140

Given the compound COc1cc(Nc2ncc(F)c(NC3CC(C)(C)N(C)C(C)(C)C3)n2)cc(OC)c1 , what is its reported IC50?
4.19

Given N#Cc1cnc2sc(-c3cccc(CN4CCCCC4CO)c3)cc2c1Nc1ccc2[nH]ccc2c1 (centres unmarked) , state its recorded IC50.
130
